System: MOLT-4
experiment_description: Cytotoxicity against human MOLT4 cells by MTT assay
Format: functional, cell-based
parameter: pIC50
In plain terms, pIC50 is the concentration in mol/L turned into minus its base-10 logarithm.

IN: Recorded pIC50 of "OCc1cc(OCc2cc(O)ccc2O)ccc1O" , please.
OUT: 5.19

IN: "OCc1cc(OCc2cc(O)ccc2O)cc(Cl)c1O" , same question.
OUT: 5.26

IN: "COCc1cc(O)ccc1O" , same question.
OUT: 4.06

====

Give measured log10 of IC50 for each item. Keep answers brief.
Test system: MOLT-4
experiment_description: Cytotoxicity against human MOLT4 cells by MTT assay
Type: functional, cell-based
Quick note: numbers are log10 of IC50, with µM as the unit.

IN: Recorded log10 of IC50 of "OCc1c(O)c(Cl)cc(O)c1Cc1cc(O)ccc1O" , please.
OUT: 1.76

IN: "COCc1cc(O)c(Cc2cc(O)ccc2O)cc1O" , same question.
OUT: 0.76

IN: "COCc1cc(O)c(Cc2cc(O)c(Cc3cc(O)ccc3O)cc2O)cc1O" , same question.
OUT: 0.74

IN: "Oc1ccc(O)c(COCc2cc(O)cc(Cl)c2O)c1" , same question.
OUT: 0.76

IN: "OCc1cc(O)c(Cc2cc(O)ccc2O)c(Cl)c1O" , same question.
OUT: 0.81

IN: "Oc1ccc(O)c(COCc2cc(O)ccc2O)c1" , same question.
OUT: 0.75

IN: "COCc1cc(O)cc(Cl)c1O" , same question.
OUT: 1.81
